Measured values drawn from patent US4698339A for this set.

- Tested on: Citrobacter freundii IFO 12681
- METHOD: MIC by agar dilution method, Citrobacter freundii IFO 12681
- Format: cell-based
- EXPERIMENTAL_CONTEXT: IFO12681, Trypticase soy agar, about 10^8 CFU/ml, 18 hours at 37° C., read-out: MIC (minimal inhibitory concentration)
Field: MIC. Provide a value for each of the molecules that follow.
Give bare numbers, in µg/mL.

Example results:
CCS(=O)(=O)CC(O)C1C(=O)N2C(C(=O)O)=C(SCCNC(C)=O)CC12 (stereo not drawn)	3.13
CC(=O)NCCSC1=C(C(=O)O)N2C(=O)[C@@H](C(O)CS(C)(=O)=O)[C@H]2C1 (stereo partly drawn)	3.13
O=C(O)C1=C(Sc2ncccn2)C[C@@H]2[C@H](C3(O)CCS(=O)(=O)C3)C(=O)N12 (stereo partly drawn)	6.25
CC(=O)NCCSC1=C(C(=O)O)N2C(=O)C(C(O)CS(=O)(=O)c3ccccc3)C2C1 (stereo not drawn)	1.56

Provide MIC values for the following items, in order.
1. CC(=O)N/C=C/SC1=C(C(=O)O)N2C(=O)[C@@H](C3(O)CCS(=O)(=O)C3)[C@H]2C1 (stereo partly drawn)
2. CC(=O)NCCSC1=C(C(=O)O)N2C(=O)[C@@H](C3(O)CCS(=O)(=O)C3)[C@H]2C1 (stereo partly drawn)

1: 1.56; 2: 3.13
